Test system: Fer (mouse);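 further: 11-residue human phosphosite peptides and single-mutation variants displayed on the E. coli surface, counted by deep sequencing, each peptide's frequency after selection divided by its frequency in the unselected input library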;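 further: frequency after pTyr selection over input frequency; kinase dosed for 20-30% of maximal phosphorylation in three min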
Experiment: phosphorylation enrichment, bacterial display (enrichment ratio); higher = better substrate or ligand; peptides without Tyr show the background
// condition not met strictly below 0.5 in phosphorylation enrichment; condition met otherwise

[
  {
    "Residue sequence": "PATINYLFEKG [NDUFS8_Y84_P85L]",
    "Target or system": "Fer (mouse)",
    "Group": "condition not met"
  },
  {
    "Residue sequence": "LERFIYNREEL [HLA-DPB1_Y59_F64L_YF]",
    "Target or system": "Fer (mouse)",
    "Group": "condition met"
  },
  {
    "Residue sequence": "SDMGQYQCLVF [AXL_Y115_T112M]",
    "Target or system": "Fer (mouse)",
    "Group": "condition met"
  },
  {
    "Residue sequence": "VLTPKYRGGGG [HBA1_Y141_S139P]",
    "Target or system": "Fer (mouse)",
    "Group": "condition not met"
  },
  {
    "Residue sequence": "KDYETYQPFQN [CTNND2_Y1157]",
    "Target or system": "Fer (mouse)",
    "Group": "condition met"
  },
  {
    "Residue sequence": "ATCKAYGQALA [TKT_Y321_R318C]",
    "Target or system": "Fer (mouse)",
    "Group": "condition not met"
  },
  {
    "Residue sequence": "CTLSVYRQLHN [LUZP1_Y1036]",
    "Target or system": "Fer (mouse)",
    "Group": "condition met"
  },
  {
    "Residue sequence": "PHQTIYGALMI [FGF23_Y70_S71G]",
    "Target or system": "Fer (mouse)",
    "Group": "condition met"
  },
  {
    "Residue sequence": "TFRPPYYHRNC [HGD_Y333]",
    "Target or system": "Fer (mouse)",
    "Group": "condition not met"
  },
  {
    "Residue sequence": "NFDRVYIYHLR [MYOF_Y1137]",
    "Target or system": "Fer (mouse)",
    "Group": "condition met"
  },
  {
    "Residue sequence": "GMSQAYSFSQR [DES_Y5_S7F]",
    "Target or system": "Fer (mouse)",
    "Group": "condition not met"
  },
  {
    "Residue sequence": "GSERDYTYDEL [EIF2S2_Y174_E177D]",
    "Target or system": "Fer (mouse)",
    "Group": "condition met"
  },
  {
    "Residue sequence": "KFGTNYRVGSS [CPO_Y278_YF]",
    "Target or system": "Fer (mouse)",
    "Group": "condition not met"
  },
  {
    "Residue sequence": "DNEYAYLKAII [HNF4A_Y288]",
    "Target or system": "Fer (mouse)",
    "Group": "condition met"
  },
  {
    "Residue sequence": "FSKQIYKGMVA [PCDH15_Y931_R929Q]",
    "Target or system": "Fer (mouse)",
    "Group": "condition not met"
  },
  {
    "Residue sequence": "GDYLSYREFHL [ERBIN_Y1107_S1112L]",
    "Target or system": "Fer (mouse)",
    "Group": "condition met"
  },
  {
    "Residue sequence": "KAFDMYSGDVM [FAM3D_Y122]",
    "Target or system": "Fer (mouse)",
    "Group": "condition not met"
  },
  {
    "Residue sequence": "DSSIRYLQEIF [FGG_Y135_YF]",
    "Target or system": "Fer (mouse)",
    "Group": "condition not met"
  },
  {
    "Residue sequence": "SENPKYPEVGD [TMEM43_Y233]",
    "Target or system": "Fer (mouse)",
    "Group": "condition not met"
  },
  {
    "Residue sequence": "CLRIDYERVSQ [DSP_Y1542_R1537C]",
    "Target or system": "Fer (mouse)",
    "Group": "condition met"
  },
  {
    "Residue sequence": "YDGKDYIALNE [HLA-A_Y147]",
    "Target or system": "Fer (mouse)",
    "Group": "condition met"
  },
  {
    "Residue sequence": "LGRGKSSEVFE [CSNK2A1_Y50_Y50S]",
    "Target or system": "Fer (mouse)",
    "Group": "condition met"
  }
]
